# assayed_system: Single-stranded DNA-binding protein (Escherichia coli (strain K12)) (UniProt P0AGE0)
# Sequence (P0AGE0 whole entry, looked up): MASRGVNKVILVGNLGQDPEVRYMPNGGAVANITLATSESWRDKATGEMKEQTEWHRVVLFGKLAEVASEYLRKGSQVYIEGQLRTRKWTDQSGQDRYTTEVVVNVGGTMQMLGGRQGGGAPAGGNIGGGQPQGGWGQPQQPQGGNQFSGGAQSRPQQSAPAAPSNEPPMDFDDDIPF
# assay_summary: displacement of E. coli SSB from DNA, late-stage follow-up, selectivity assay for HCV NS3 helicase inhibitor project, biochemical, fluorescence polarization (AID 623966)
# setup_conditions: E. coli SSB / Cy5-dT15 DNA
IC50 listing for selected compounds.

structure_smiles	IC50
Cc1ccc2nc(-c3ccc4nc(-c5ccc(NC(=S)Nc6ccccc6)cc5)sc4c3)sc2c1S(=O)(=O)O	7 µM
Cc1ccc2nc(-c3ccc4nc(-c5ccc(NC(=O)c6ccc(N(C)C)cc6)cc5)sc4c3)sc2c1S(=O)(=O)O	4 µM

====

# assayed_system: Single-stranded DNA-binding protein (Escherichia coli (strain K12))
# assay_summary: displacement of E. coli SSB from DNA, late-stage follow-up, selectivity assay for HCV NS3 helicase inhibitor project, biochemical, fluorescence polarization (AID 623966)
# setup_conditions: E. coli SSB / Cy5-dT15 DNA
Activity calls are given as the source filed them.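 How the source made its calls: active means compounds that push a bacterial single-strand DNA binding protein off labeled DNA, with IC50 up to 50 micromolar; inactive means the rest.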
Labels: T for active, F for inactive

structure_smiles	category_label
Cc1ccc2nc(-c3ccc(NC(=O)c4ccc(NC(=O)c5ccc(N)cc5)cc4)cc3)sc2c1S(=O)(=O)O	T
Cc1ccc2nc(-c3ccc4nc(-c5ccc(NC(=O)c6ccc(NC(=O)OCC7c8ccccc8-c8ccccc87)cc6)cc5)sc4c3)sc2c1S(=O)(=O)O	F
Cc1ccc2nc(-c3ccc(NC(=O)c4ccc(NC(=O)c5ccc(NC(=O)OCC6c7ccccc7-c7ccccc76)cc5)cc4)cc3)sc2c1S(=O)(=O)O	T

====

IC50 listing for selected molecules.
# assayed_system: Single-stranded DNA-binding protein (Escherichia coli (strain K12)) (UniProt P0AGE0)
# assay_summary: displacement of E. coli SSB from DNA, late-stage follow-up, selectivity assay for HCV NS3 helicase inhibitor project, biochemical, fluorescence polarization (AID 623966)
# setup_conditions: E. coli SSB / Cy5-dT15 DNA
Calls of active or inactive are those of the source.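 How the source made its calls: active means compounds that push a bacterial single-strand DNA binding protein off labeled DNA, with IC50 up to 50 micromolar; inactive means the rest.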

structure_smiles	assayed_system	IC50
Cc1ccc2nc(-c3ccc4nc(-c5ccc(NC(=O)c6ccc(Cl)cc6)cc5)sc4c3)sc2c1S(=O)(=O)O	Single-stranded DNA-binding protein (Escherichia coli (strain K12)) (UniProt P0AGE0)	46 µM
Cc1ccc2nc(-c3ccc4nc(-c5ccc(NC(=O)c6ccccc6C(F)(F)F)cc5)sc4c3)sc2c1S(=O)(=O)O	Single-stranded DNA-binding protein (Escherichia coli (strain K12)) (UniProt P0AGE0)	13 µM
Cc1ccc2nc(-c3ccc4nc(-c5ccc(NC(=O)c6cc(F)cc(C(F)(F)F)c6)cc5)sc4c3)sc2c1S(=O)(=O)O	Single-stranded DNA-binding protein (Escherichia coli (strain K12)) (UniProt P0AGE0)	> 100 µM (inactive)
Cc1ccc(NC(=O)Nc2ccc(-c3nc4ccc(-c5nc6ccc(C)c(S(=O)(=O)O)c6s5)cc4s3)cc2)cc1	Single-stranded DNA-binding protein (Escherichia coli (strain K12)) (UniProt P0AGE0)	10 µM
Cc1ccc2nc(-c3ccc4nc(-c5ccc(NC(=O)c6ccc7nc(-c8ccc(NC(=O)OCC9c%10ccccc%10-c%10ccccc%109)cc8)sc7c6)cc5)sc4c3)sc2c1S(=O)(=O)O	Single-stranded DNA-binding protein (Escherichia coli (strain K12)) (UniProt P0AGE0)	5 µM
Cc1ccc2nc(-c3ccc4nc(-c5ccc(NC(=O)c6c(F)cccc6C(F)(F)F)cc5)sc4c3)sc2c1S(=O)(=O)O	Single-stranded DNA-binding protein (Escherichia coli (strain K12)) (UniProt P0AGE0)	13 µM
Cc1ccc2nc(-c3ccc4nc(-c5ccc(NC(=O)c6cc(F)ccc6C(F)(F)F)cc5)sc4c3)sc2c1S(=O)(=O)O	Single-stranded DNA-binding protein (Escherichia coli (strain K12)) (UniProt P0AGE0)	14 µM
Cc1ccc2nc(-c3ccc4nc(-c5ccc(NC(=O)c6ccc(C(F)(F)F)cc6)cc5)sc4c3)sc2c1S(=O)(=O)O	Single-stranded DNA-binding protein (Escherichia coli (strain K12)) (UniProt P0AGE0)	4 µM
Cc1ccc2nc(-c3ccc4nc(-c5ccc(NC(=O)c6ccc(Cl)c(Cl)c6)cc5)sc4c3)sc2c1S(=O)(=O)O	Single-stranded DNA-binding protein (Escherichia coli (strain K12)) (UniProt P0AGE0)	> 100 µM (inactive)
